targetDesc: Human Cav3.1 calcium channel (Homo sapiens, UniProt O43497)
Construct: expressed in transfected cells; host or cells: HEK-293 natClytin/TASK1+Cav3.1 cell line
Sequence (O43497 whole entry): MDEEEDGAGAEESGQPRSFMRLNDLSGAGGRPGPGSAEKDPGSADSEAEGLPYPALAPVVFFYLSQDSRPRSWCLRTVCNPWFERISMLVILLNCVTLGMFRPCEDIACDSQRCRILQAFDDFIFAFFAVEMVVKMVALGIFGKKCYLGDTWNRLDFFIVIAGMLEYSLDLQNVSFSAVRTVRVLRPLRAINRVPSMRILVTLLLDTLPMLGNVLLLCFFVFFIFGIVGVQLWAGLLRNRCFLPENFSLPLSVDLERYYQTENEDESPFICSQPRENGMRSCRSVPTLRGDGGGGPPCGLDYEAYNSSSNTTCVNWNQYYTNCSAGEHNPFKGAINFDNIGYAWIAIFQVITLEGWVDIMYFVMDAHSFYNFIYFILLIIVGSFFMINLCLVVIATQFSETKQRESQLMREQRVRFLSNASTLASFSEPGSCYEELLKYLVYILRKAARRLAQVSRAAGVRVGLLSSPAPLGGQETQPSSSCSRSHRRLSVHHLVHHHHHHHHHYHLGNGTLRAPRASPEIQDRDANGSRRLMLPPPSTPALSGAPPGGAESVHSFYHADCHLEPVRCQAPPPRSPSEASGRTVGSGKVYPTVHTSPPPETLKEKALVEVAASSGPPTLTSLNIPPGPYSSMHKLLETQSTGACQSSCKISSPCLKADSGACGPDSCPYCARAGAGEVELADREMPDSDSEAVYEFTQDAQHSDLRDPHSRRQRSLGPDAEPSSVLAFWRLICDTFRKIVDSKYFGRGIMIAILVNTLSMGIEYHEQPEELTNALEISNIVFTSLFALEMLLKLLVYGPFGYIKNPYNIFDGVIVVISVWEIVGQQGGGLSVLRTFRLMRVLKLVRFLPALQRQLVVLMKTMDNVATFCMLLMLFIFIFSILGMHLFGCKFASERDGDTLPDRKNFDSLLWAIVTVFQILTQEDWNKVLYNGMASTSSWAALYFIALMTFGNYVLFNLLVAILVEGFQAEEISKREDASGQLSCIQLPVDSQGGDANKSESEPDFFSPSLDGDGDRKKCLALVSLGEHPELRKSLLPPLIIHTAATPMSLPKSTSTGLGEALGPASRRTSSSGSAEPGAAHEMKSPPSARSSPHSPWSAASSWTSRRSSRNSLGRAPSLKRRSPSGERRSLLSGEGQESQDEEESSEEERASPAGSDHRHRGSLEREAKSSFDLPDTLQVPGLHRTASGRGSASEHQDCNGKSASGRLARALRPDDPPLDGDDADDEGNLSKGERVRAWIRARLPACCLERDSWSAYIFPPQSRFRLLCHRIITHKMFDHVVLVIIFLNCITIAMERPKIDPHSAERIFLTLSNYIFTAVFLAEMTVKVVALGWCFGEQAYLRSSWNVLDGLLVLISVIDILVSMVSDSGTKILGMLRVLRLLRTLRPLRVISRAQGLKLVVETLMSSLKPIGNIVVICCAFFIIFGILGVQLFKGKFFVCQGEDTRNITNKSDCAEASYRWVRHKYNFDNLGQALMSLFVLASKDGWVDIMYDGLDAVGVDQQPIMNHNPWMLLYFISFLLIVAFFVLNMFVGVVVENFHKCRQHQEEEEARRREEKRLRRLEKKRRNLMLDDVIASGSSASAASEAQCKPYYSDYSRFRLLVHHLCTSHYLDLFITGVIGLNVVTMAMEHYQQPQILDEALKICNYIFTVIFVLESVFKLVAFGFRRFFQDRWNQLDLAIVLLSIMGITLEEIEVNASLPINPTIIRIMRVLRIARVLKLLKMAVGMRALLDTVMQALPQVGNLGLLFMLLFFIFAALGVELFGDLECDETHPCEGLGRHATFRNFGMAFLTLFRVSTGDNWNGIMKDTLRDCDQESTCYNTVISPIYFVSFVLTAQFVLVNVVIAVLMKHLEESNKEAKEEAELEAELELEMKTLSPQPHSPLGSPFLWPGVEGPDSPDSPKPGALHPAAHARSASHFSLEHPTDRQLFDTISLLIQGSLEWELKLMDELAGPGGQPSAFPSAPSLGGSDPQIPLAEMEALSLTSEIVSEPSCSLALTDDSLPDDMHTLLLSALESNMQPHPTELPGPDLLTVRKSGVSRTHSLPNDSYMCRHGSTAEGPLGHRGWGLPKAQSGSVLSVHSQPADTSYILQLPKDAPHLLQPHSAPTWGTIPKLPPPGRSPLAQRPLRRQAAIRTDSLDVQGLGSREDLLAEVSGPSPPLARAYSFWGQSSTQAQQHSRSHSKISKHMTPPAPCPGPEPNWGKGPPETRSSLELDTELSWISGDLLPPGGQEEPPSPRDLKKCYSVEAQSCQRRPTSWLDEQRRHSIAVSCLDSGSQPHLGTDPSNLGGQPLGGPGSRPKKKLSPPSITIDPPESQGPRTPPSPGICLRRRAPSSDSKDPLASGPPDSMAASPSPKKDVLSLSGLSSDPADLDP
testProtocol: Human Cav3.1 calcium channel patch clamp assay (SyncroPatch 384PE; single point and IC50, voltage dependent block)
Format: cell-based
cond: Testing Conc 1.25; HEK-293 natClytin/TASK1+Cav3.1 cell line, patch clamp
quantity: % Inhibition (Single Point Data) (%)
Unit % implied. Number only.

The cases that follow already have their % Inhibition (Single Point Data) on record.
{"entrySmiles": "CC(C)(C)NC(=O)CN1C[C@@H]2C[C@H]1CN2CC(=O)NCC12CC3CC(CC(C3)C1)C2", "quantity": "% Inhibition (Single Point Data)", "reported": 45.897}
{"entrySmiles": "CC(C)(C)NC(=O)CN1C[C@@H]2C[C@H]1CN2CC(=O)NC12CC3CC(C1)CC(OC(F)F)(C3)C2", "quantity": "% Inhibition (Single Point Data)", "reported": 86.624}

Query string: Indicate its recorded % Inhibition (Single Point Data); the compound in question is CC(C)(C)NC(=O)CN1C2CC1CN(CC(=O)NC1CCCCC1)C2
Result string: 22.713

Data origin, for the record: patent US20250213558A1
